target or test system: T1, PARD3B_1, Q8TEW8
T1 sequence (Q8TEW8 196-299, limits assumed, looked up): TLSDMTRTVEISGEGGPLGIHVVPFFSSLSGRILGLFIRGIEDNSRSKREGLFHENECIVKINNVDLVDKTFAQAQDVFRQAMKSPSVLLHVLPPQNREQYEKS
assay text: holdup assay
Design: key: below the threshold = too weak to quantify, mostly under pKd 3.1 to 4
setup conditions: plain residues with an end cap or a label only (N-terminal biotin on a linker: ado-ado)
experimental endpoint: pKd

- binder: "PALKNGQYWV [CSPG4, Q6UVK1]"
  meas value: 3.71
- binder: "GSQSQVETEA [FKBP4, Q02790]"
  meas value: "below the threshold"
- binder: "NISARRFTLC [FAM167B, Q9BTA0]"
  meas value: "below the threshold"
- binder: "EFKQTSSFLV [JAM1, Q9Y624]"
  meas value: 4.72
- binder: "LVEEEEPMNL [HDAC7, Q8WUI4]"
  meas value: "below the threshold"

Short answer for KLQNPNQSVV [TYRP1, P17643] : pKd was below the threshold

Notebook: STYCDYTIEI [FAM71C, Q8NEG0] , pKd read as 4.1

For reference, reported pKd for HLSTRQGTCV [ATRNL1, Q5VV63] stands at below the threshold

What the record says about NTALVESEDL [PALLS, Q8WX93] : pKd is 3.58
